# test description: Half life in mouse liver microsomes at 1 uM preincubated for 10 mins followed by NADPH addition measured after 30 to 60 mins by LC-MS/MS method
# Format: ADME, microsome
endpoint: half-life at 1 µM
Please give the number followed by its unit.

Data request: Supply recorded half-life at 1 µM for CN1CCN(c2cc(CN(C)[C@H]3CCCc4cccnc43)ncn2)CC1 here.
Data returned: 1.4 min

====

# test description: Efflux ratio of apparent permeability across basolateral to apical over apical to basolateral side in human Caco2 cells at 2 uM by LC-MS/MS method
# Format: ADME, cell-based
# measurement conditions: Caco-2
endpoint: efflux ratio at 2 µM
Keep the answer to the number alone.

Data request: Give me measured efflux ratio at 2 µM, please, for this molecule: CN1CCN(c2cc(CN(C)[C@H]3CCCc4cccnc43)ncn2)CC1
Data returned: 1.5

====

# test target: C-X-C chemokine receptor type 4 (Homo sapiens)
# Sequence (P61073 whole entry): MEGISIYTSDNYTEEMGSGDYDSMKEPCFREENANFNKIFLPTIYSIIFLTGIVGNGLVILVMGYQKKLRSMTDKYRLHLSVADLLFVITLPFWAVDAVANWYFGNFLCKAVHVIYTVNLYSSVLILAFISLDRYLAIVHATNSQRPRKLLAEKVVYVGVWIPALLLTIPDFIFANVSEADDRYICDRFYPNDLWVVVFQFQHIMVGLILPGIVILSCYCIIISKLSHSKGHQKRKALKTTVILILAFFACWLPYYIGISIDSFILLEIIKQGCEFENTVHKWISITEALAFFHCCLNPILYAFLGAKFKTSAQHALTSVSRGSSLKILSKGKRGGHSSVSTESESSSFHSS
# test description: Displacement of 12G5-CXCL12 from CXCR4 in human HPBALL cells after 3 hrs by FACS analysis
# Assay type: cell-based
Reported IC50 values for the following molecules.

{"columns": ["molecule", "test target", "meas value"],
 "data": [
  ["CN1CCN(c2cc(CN(C)C3CCCc4cccnc43)ncn2)CC1.Cl (stereo not drawn)", "C-X-C chemokine receptor type 4 (Homo sapiens)", "54 nM"]
]}

Here is another molecule to look at.
Data request: Supply recorded IC50 for CN(C)c1cc(CN(C)C2CCCc3cccnc32)ncn1 (stereo not drawn) here.
Data returned: > 10000 nM

====

# test description: Apparent permeability across apical to basolateral side in human Caco2 cells at 2 uM by LC-MS/MS method
# Type: ADME, cell-based
# measurement conditions: Caco-2
endpoint: Papp A→B at 2 µM (×10⁻⁶ cm/s)
Give the number; ×10⁻⁶ cm/s is assumed, so skip it.

Data request: Answer with the recorded Papp A→B at 2 µM for the compound listed here: CN1CCN(c2cc(CN(C)[C@H]3CCCc4cccnc43)ncn2)CC1
Data returned: 15

====

# test target: Voltage-gated inwardly rectifying potassium channel KCNH2 (Homo sapiens, UniProt Q12809)
# Sequence (Q12809 whole entry): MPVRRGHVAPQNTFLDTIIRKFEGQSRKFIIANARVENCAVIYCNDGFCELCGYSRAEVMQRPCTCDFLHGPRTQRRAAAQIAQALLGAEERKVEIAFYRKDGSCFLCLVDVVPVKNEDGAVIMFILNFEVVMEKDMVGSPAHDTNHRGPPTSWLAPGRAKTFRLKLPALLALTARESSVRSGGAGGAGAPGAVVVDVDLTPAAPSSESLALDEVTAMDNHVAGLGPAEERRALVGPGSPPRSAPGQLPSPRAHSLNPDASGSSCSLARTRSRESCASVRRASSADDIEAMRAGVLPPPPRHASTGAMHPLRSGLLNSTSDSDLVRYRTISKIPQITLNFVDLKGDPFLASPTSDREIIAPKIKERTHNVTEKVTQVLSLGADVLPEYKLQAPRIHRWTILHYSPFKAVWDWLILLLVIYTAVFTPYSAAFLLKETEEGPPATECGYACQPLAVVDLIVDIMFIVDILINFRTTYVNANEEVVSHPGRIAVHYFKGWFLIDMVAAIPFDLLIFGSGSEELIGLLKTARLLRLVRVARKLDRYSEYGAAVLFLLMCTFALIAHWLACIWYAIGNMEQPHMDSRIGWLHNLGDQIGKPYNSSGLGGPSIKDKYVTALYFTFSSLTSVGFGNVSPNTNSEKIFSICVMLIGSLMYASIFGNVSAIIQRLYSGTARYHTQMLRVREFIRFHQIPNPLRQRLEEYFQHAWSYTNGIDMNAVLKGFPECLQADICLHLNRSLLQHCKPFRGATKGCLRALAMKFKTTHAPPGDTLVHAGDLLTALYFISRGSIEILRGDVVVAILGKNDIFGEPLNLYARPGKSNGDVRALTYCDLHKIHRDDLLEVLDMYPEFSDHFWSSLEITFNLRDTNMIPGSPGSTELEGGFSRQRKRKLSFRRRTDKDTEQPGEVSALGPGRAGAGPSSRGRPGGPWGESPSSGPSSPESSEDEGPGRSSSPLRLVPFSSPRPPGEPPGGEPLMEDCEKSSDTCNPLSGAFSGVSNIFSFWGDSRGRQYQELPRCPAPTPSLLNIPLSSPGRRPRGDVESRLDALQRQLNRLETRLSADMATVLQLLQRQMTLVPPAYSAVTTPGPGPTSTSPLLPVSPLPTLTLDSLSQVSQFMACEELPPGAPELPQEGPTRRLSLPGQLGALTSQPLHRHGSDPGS
# test description: Inhibition of human ERG expressed in CHO cells after 4 mins at -80 mV holding potential by Qpatch assay
endpoint: IC50

Data request: Give the reported IC50 for this compound. CN1CCN(c2cc(CN(C)[C@H]3CCCc4cccnc43)ncn2)CC1
Data returned: > 30 µM

====

# test description: Intrinsic clearance in mouse liver microsomes at 1 uM preincubated for 10 mins followed by NADPH addition measured after 30 to 60 mins by LC-MS/MS method
# Type: ADME, microsome
# measurement conditions: read-out: CLH
endpoint: CLint scaled at 1 µM (L/h/kg)
Only the number, expressed in L/h/kg, is required.

Data request: Give a short answer stating reported CLint scaled at 1 µM for CN1CCN(c2cc(CN(C)[C@H]3CCCc4cccnc43)ncn2)CC1 .
Data returned: 232

====

# test target: CYP2D6 (Homo sapiens, UniProt P10635)
# Sequence (P10635 whole entry): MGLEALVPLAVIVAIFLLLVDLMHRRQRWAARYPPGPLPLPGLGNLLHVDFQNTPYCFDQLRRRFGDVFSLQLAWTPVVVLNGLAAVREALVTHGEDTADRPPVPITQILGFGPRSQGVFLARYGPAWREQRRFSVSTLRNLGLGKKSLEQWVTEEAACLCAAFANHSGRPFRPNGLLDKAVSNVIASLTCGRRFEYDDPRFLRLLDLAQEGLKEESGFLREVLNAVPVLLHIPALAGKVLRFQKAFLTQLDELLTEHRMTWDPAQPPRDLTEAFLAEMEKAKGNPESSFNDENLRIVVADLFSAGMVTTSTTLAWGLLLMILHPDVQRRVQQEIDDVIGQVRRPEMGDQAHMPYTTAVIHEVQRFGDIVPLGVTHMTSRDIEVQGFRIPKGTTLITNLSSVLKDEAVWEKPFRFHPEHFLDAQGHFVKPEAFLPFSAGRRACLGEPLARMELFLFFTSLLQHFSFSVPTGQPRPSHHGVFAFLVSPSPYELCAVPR
# test description: Inhibition of CYP2D6 in human liver microsomes at 10 uM using dextromethorphan as substrate preincubated for 10 min followed by NADPH addition measured after 10 mins by LC-MS/MS analysis relative to control
# Assay type: ADME
# measurement conditions: probe dextromethorphan
endpoint: inhibition at 10 min, 10 µM (%)
Answer format: numeric, % implied, no suffix.

Data request: Report inhibition at 10 min, 10 µM for CN1CCN(c2cc(CN(C)C3CCCc4cccnc43)ncn2)CC1.Cl (stereo unspecified)
Data returned: 3

====

# test description: Intrinsic clearance in human liver microsomes at 1 uM preincubated for 10 mins followed by NADPH addition measured after 30 to 60 mins by LC-MS/MS method
# Format: ADME, microsome
# measurement conditions: read-out: CLH
endpoint: CLint scaled at 1 µM

Data request: Retrieve CLint scaled at 1 µM measured for CN1CCN(c2cc(CN(C)[C@H]3CCCc4cccnc43)ncn2)CC1 and print it.
Data returned: 226 mL/min/kg

====

# test target: UniProt P61073
# test description: Displacement of 12G5-CXCL12 from CXCR4 in human HPBALL cells after 3 hrs by FACS analysis
# Format: cell-based
pIC50 values for the molecules below.
By convention, pIC50 is the negative base-10 log of a molar concentration.

Some solved cases for reference:
{"columns": ["molecule", "pIC50"],
 "data": [
  ["CN1CCN(c2cc(CN(C)[C@@H]3CCCc4cccnc43)ncn2)CC1", 5.89],
  ["CN(Cc1cc(N2CCN(CC3CC3)CC2)ncn1)C1CCCc2cccnc21 (stereo unspecified)", 5.98]
]}

Data request: # return recorded pIC50 for entry CC(C)N1CCN(c2cc(CN(C)C3CCCc4cccnc43)ncn2)CC1 (stereo unspecified)
Data returned: 6.68

Data request: Give the reported value of pIC50 for this record: CN(Cc1cc(NCCN2CCOCC2)ncn1)C1CCCc2cccnc21 (stereo unspecified)
Data returned: 6.19

Data request: Report pIC50, nothing else, for this molecule: CN1CCN(c2cc(CN(CCCCNC(=O)OC(C)(C)C)C3CCCc4cccnc43)ncn2)CC1 (stereo unspecified)
Data returned: 7.74

Data request: Report pIC50, nothing else, for this molecule: CCN1CCN(c2cc(CN(C)C3CCCc4cccnc43)ncn2)CC1 (stereo unspecified)
Data returned: 6.49

Data request: Note down pIC50 recorded for CN(C)CCN(C)c1cc(CN(C)C2CCCc3cccnc32)ncn1 (stereo unspecified)
Data returned: 5.99

Data request: Using known records, supply pIC50 for CN(C)C1CCN(c2cc(CN(C)C3CCCc4cccnc43)ncn2)C1 (stereo unspecified)
Data returned: 6.82

====

# test target: C-X-C chemokine receptor type 4 (Homo sapiens)
# test description: Displacement of 12G5-CXCL12 from CXCR4 in human HPBALL cells after 3 hrs by FACS analysis
# Assay type: cell-based
Please use 1.0 for IC50 under 200 nM and 0.0 for everything else, ties included.

Solved entries (count: 5):
{"columns": ["molecule", "test target", "qualitative label"],
 "data": [
  ["CN(Cc1ccncn1)C1CCCc2cccnc21 (stereo not drawn)", "C-X-C chemokine receptor type 4 (Homo sapiens)", 0.0],
  ["CN1CCN(c2cc(CN(C)C3CCCc4cccnc43)ccn2)CC1 (stereo not drawn)", "C-X-C chemokine receptor type 4 (Homo sapiens)", 0.0],
  ["CN1CCCN(c2cc(CN(C)C3CCCc4cccnc43)ncn2)CC1 (stereo not drawn)", "C-X-C chemokine receptor type 4 (Homo sapiens)", 1.0],
  ["CN(Cc1cc(N2CCN(CCO)CC2)ncn1)C1CCCc2cccnc21 (stereo not drawn)", "C-X-C chemokine receptor type 4 (Homo sapiens)", 0.0],
  ["CN(C)C1CCN(c2cc(CN(C)C3CCCc4cccnc43)ncn2)CC1 (stereo not drawn)", "C-X-C chemokine receptor type 4 (Homo sapiens)", 0.0]
]}

Data request: Answer whether the molecule CN1CCN(c2cc(CN(CCCCN)C3CCCc4cccnc43)ncn2)CC1 (stereo not drawn) has IC50 strictly less than 200 nM
Data returned: 1.0

Data request: Please state whether IC50 is below 200 nM for CN1CCN(c2nccc(CN(C)C3CCCc4cccnc43)n2)CC1 (stereo not drawn)
Data returned: 0.0

Data request: Take the molecule CN(Cc1cc(N2CCNCC2)ncn1)C1CCCc2cccnc21 (stereo not drawn) and say whether its IC50 is less than 200 nM.
Data returned: 0.0

Data request: I wonder whether CN1CCN(c2cc(CN(C)[C@H]3CCCc4cccnc43)ncn2)CC1 has IC50 below 200 nM. Can you tell?
Data returned: 1.0

Data request: Report whether reported IC50 is lower than 200 nM (strictly) for CN1CCN(c2cccc(CN(C)C3CCCc4cccnc43)n2)CC1 (stereo not drawn)
Data returned: 0.0

Data request: Determine whether this molecule shows IC50 lower than 200 nM (ties excluded): CN1CCN(c2ccnc(CN(C)C3CCCc4cccnc43)n2)CC1 (stereo not drawn)
Data returned: 1.0

Data request: Does CN(Cc1cc(N2CCN(C(=O)OC(C)(C)C)CC2)ncn1)C1CCCc2cccnc21 (stereo not drawn) have IC50 strictly under 200 nM?
Data returned: 0.0

Hey, just so you know, these numbers are from ChEMBL document CHEMBL4196046.
